# Tgt: CSK (human) (UniProt P41240)
# Sequence (P41240 whole entry, looked up): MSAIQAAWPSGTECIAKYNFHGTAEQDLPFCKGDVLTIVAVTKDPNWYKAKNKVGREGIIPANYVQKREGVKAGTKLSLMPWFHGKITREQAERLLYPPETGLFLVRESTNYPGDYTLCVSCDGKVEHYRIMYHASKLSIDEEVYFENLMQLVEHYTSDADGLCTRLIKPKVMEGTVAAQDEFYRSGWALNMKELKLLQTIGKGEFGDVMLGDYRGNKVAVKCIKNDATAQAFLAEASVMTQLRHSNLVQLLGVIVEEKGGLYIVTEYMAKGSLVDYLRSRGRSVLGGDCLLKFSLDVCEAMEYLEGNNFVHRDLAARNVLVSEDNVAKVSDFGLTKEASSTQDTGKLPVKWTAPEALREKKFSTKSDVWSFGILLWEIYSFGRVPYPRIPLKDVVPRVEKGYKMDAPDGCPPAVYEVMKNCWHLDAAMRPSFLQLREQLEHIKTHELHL
# Test Summary: radiometric filter-binding kinase assay
# Test Context: compound 10.0 µM
Experimental Endpoint: residual activity (%)
Answers are plain numbers, in %.

Worked examples follow.
CC(C)(C#N)c1ccc(N2C(=O)OCc3cnc4ccc(-c5cnc6ccccc6c5)cc4c32)cc1
89
CCCC(CCC)C(=O)O
91
O=C1Nc2nc(-c3c(O)cccc3OCC3CC3)cc(C3CCCNC3)c2CO1 (stereo not given)
92

Below are some molecules; for each one, tell me its residual activity.
1. O=S(=O)(c1ccc(F)c2nonc12)N1CCN(c2ncc(C(F)(F)F)cc2Cl)CC1
2. NC(=O)c1c(NC(=O)C2CC2)sc2c1CCCC2

90
88
